Values were extracted from patent US20160130327A1.

# STUDY TARGET: revertant virus (AD169 CMV with the pentameric gH complex restored)
# TEST SUMMARY: cell-based or functional assay
Threshold-based label: Neutralization in ARPE-19 cells EC50 under 0.03 µg/mL gives 1, Neutralization in ARPE-19 cells EC50 not under 0.03 µg/mL gives -1.

BINDER	CLASS NAME
240.8 (antibody, V domains shown, rabbit hybridoma mAb; also called clone 240.8) VH: QSVEESGGGLVTPGGTLTLTCGVSGIDLSANEMGWVRQAPGEGLEWIGTLSYHNIPHYATWAKGRFTISKTSTTVDLKITSPTSADTATYFCGRVFTSTSFDPWGPGTLVTISS VL: ELVMTHPPASVSAPVGGTVTIKCQASHNIGSRLPWYQQEPGQPPKLLIYRTSTLASGVPSRFTGSGYGTEFTLTISDLECADAATYYCQDHDDISHAFGGGTNVEIK	-1
210.4 (antibody, V domains shown, rabbit hybridoma mAb; also called clone 210.4) VH: QSVEESGGRLVTPGTPLTLTCTVSGFSLSTNAMSWVRQAPGKGLEWIGYIWSGGSTYYASWAKGRFAISKTSTTVDLKITSPTTEDTATYFCAKNGDNGQLDLWGQGTLVTVSS VL: ELVLTQTPSPVSAAVGGTVTINCQTSQSLYNNNFLSWYQQKPGQPPKLLIYKASTLESGVPSRFKGSGSGTQFTLTISGVQCDDAATYYCQGEFSCSSADCNAFGGGTEVVVK	-1
57.4 (antibody, V domains shown, rabbit hybridoma mAb (not the humanized version); also called clone 57.4; mAb 57.4) VH: QSLEESGGGLVKPGGTLTLTCTASGFSFSSVYDMSWVRQAPGKGLEWIASIVTGSRTTWYASWAKGRFTVSKTSSTTVTLQMTSLTAADTATYFCARGEYGHDGYVDGTMGLGLWGPGTLVTISS VL: ELDLTQTPASVEAAVGGTVAIKCQASQSIRRHLSWYQQKPGQRPKLLIYGASNLASGVSSRFKGSGSGTEFTLTISDLECADAATYYCQCTYGVGFSSTYGDAFGGGTELEIL	1
324.4 (antibody, V domains shown, rabbit hybridoma mAb; also called clone 324.4) VH: QSVKESEGRLVTPGTPLTLTCTVSGFSPSSYNMGWVRQAPGEGLEWIGYISTSGNTFYASWAKGRFTISKTSTTVDLRITSPTTEDTATYFCARGSYVAYNAWDLWGPGTLVTISS VL: ELDLTQTASPVSAAVGGTVTINCQSSQSVYNNNYLSWYQQKPGQPPKLLIYGASTLASGVPSRFKGSGSGTQFTLTISEVQCDDAATYYCQGYYSGYIYAFGGGTEVVVK	-1
